target desc: integrin α4β1 (Homo sapiens, UniProt P05556+P13612)
Construct: cell strain Jurkat (ATCC TIB-152) of human T cells, known to express integrin α4β1; endogenous in cells
Sequence (P13612 34-1032): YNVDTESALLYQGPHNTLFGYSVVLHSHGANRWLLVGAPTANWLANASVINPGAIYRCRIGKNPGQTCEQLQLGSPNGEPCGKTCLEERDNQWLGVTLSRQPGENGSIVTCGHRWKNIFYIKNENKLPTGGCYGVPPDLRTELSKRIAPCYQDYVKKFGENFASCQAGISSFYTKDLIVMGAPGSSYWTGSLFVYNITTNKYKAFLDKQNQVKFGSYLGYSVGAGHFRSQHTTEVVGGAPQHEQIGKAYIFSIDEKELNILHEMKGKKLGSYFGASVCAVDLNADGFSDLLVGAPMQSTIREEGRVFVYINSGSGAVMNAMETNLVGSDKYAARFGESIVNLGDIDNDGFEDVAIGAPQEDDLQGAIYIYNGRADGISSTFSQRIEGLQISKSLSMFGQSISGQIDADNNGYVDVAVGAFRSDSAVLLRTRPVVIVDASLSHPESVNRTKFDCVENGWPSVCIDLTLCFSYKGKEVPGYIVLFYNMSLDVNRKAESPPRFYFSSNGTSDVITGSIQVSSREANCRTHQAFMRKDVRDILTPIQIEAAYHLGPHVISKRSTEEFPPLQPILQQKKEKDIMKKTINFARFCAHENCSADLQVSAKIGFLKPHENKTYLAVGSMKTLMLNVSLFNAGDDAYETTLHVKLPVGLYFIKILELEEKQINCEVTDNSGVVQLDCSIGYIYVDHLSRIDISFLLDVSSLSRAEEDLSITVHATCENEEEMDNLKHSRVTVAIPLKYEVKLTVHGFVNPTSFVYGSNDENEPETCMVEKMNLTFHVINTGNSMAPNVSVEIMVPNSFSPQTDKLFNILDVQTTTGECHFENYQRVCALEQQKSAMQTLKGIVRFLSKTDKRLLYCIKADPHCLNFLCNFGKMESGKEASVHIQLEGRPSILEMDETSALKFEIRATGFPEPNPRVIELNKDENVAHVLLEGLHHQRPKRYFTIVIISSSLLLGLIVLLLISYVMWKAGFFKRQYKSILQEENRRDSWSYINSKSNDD
Sequence (P05556 21-798): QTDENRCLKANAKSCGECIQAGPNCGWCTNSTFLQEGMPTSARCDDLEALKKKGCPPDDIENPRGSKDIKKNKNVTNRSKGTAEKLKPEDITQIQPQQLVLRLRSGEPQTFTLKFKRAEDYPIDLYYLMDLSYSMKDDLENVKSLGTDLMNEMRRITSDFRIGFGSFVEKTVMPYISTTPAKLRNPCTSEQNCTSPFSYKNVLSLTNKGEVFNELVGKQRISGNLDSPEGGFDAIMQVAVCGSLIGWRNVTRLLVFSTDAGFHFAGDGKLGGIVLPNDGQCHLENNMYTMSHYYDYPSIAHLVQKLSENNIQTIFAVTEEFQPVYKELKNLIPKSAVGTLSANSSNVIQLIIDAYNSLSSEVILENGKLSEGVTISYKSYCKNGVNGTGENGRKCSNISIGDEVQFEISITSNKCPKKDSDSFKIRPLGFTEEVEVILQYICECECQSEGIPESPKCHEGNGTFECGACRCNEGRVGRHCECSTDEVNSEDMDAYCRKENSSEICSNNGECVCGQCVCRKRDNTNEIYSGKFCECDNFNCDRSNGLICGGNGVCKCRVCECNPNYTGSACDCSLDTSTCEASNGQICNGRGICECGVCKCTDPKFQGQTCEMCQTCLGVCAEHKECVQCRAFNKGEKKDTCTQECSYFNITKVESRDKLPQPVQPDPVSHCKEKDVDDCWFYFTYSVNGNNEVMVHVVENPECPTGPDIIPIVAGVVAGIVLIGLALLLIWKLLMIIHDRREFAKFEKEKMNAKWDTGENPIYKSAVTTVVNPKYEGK
protocol text: VCAM antagonist activity (VCAM-1/α4β1 binding assay), Jurkat cells binding to VCAM-1
condition set: Jurkat cells binding to recombinant human VCAM-1, 30 minutes at room temperature; read-out: VCAM antagonistic activity IC50, α4β1
measured parameter: IC50 (nM)
State the answer as a number, implicitly in nM.

Some entries whose results are on file:
- molecule smiles: "O=C(N[C@@H](Cc1ccc(-n2ncc3ccccc3c2=O)cc1)C(=O)O)c1c(Cl)cccc1Cl"
  IC50 / nM: 190
- molecule smiles: "COc1c(-c2ccc(C[C@H](NC(=O)c3c(Cl)cccc3Cl)C(=O)O)cc2)c(=O)n(C)c2ccccc12"
  IC50 / nM: 44
- molecule smiles: "Cn1c(=O)c(-c2ccc(C[C@H](NC(=O)c3c(Cl)cccc3Cl)C(=O)O)cc2)cc2cc(S(C)(=O)=O)ccc21"
  IC50 / nM: 64

Shifting focus to the molecule that follows.
Query :: Consider the molecule Cn1c(=O)c(-c2ccc(C[C@H](NC(=O)c3c(Cl)cccc3Cl)C(=O)O)cc2)cc2ccccc21 . State its measured IC50.
Result :: 620

Data provenance: patent US7884204B2
